// provenance: patent US20240208992A1

TESTED TARGET: human F508del-CFTR (Homo sapiens, UniProt P13569, DEL508-508)
Sequence (P13569 with tags, fused parts or gaps DEL508-508): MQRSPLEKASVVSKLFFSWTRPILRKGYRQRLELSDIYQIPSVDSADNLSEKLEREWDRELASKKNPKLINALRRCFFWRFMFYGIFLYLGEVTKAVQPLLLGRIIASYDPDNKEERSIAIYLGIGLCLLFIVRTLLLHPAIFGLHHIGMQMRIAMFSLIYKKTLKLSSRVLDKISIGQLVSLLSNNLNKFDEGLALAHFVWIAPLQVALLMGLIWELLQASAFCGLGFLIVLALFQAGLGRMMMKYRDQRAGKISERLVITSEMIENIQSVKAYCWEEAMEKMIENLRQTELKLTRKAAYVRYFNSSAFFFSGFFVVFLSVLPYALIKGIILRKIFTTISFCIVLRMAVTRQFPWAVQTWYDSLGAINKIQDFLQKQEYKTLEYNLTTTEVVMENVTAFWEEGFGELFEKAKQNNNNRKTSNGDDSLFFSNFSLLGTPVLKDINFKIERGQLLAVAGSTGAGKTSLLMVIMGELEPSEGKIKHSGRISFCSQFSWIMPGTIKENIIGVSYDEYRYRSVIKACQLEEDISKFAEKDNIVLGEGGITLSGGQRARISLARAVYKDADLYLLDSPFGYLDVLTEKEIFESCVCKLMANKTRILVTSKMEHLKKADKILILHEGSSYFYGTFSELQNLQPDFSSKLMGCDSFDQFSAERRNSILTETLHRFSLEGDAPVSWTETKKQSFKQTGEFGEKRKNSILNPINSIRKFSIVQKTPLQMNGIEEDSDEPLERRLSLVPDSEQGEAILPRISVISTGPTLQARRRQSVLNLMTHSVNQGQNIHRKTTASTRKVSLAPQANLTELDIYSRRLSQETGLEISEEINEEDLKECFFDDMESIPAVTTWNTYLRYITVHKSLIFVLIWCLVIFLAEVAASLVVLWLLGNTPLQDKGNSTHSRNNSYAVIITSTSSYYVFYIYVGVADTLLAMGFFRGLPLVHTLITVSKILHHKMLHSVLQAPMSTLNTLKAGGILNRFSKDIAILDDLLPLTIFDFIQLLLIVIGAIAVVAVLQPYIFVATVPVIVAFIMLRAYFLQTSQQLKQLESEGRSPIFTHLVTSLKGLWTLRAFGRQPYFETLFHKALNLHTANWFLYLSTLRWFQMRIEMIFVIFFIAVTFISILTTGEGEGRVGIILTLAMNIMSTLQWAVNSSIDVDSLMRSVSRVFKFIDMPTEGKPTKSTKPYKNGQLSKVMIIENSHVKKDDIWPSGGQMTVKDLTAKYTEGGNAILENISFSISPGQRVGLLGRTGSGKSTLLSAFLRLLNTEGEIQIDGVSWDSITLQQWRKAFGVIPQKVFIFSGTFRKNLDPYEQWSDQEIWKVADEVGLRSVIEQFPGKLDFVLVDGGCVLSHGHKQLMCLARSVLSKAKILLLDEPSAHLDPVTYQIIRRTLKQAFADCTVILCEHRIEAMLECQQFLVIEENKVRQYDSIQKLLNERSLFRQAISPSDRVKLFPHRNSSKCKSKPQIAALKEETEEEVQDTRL
PROTOCOL: F508del-CFTR cell surface expression (corrector activity), DiscoveRx ß-galactosidase complementation chemiluminescence assay in recombinant U2OS cell line;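 also: U2OS cells co-expressing ProLink-tagged F508del-CFTR and a membrane-anchored enzyme acceptor, where more surface CFTR restores β-galactosidase activity measured by chemiluminescence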
SETUP CONDITIONS: in relation to Emax of corrector lumacaftor (=100%); arithmetic mean values
PROPERTY LABEL: Emax (%)

| COMPOUND | UNIT OF MEASUREMENT | MEASURED RESULT |
| --- | --- | --- |
| CC(C)C[C@H]1C(=O)N(C)[C@@H](CC2CCC(F)(F)CC2)C(=O)N[C@H](Cc2ccccc2)COc2cnc3ccc(F)cc3c2C(=O)N[C@H](C(=O)NCCc2noc(C3CC3)n2)CC(=O)N1C [Example 539] | % | 391 |
| CC(C)C[C@H]1C(=O)N(C)[C@@H](CC2CCC(F)(F)CC2)C(=O)N[C@H](Cc2ccccc2)COc2cnc3ccc(F)cc3c2C(=O)N[C@H](C(=O)NCCc2noc(C3CC3)n2)CC(=O)N1C [Example 540] | % | 256 |
| COc1cc2c(cn1)OC[C@@H](Cc1ccccc1)NC(=O)[C@H]1CCCCN1C(=O)[C@H](CC(C)C)N(C)C(=O)C[C@@H](C(=O)NCCc1cc(C3CC3)on1)NC2=O [Example 518] | % | 189 |
